responders at 25000 µM overview
test system: Tadpoles; test: Tadpole anesthesia test (movement suppressed on contact with rod); format: in vivo; conditions: read-out: Movement suppressed (%)
# do not omit the unit; it follows the number

CC[C@H](C)[C@H](N)C(=O)O
0%

So what does the record say about responders at 25000 µM for NC(=O)CC[C@H](N)C(=O)O ?
0%

So what does the record say about responders at 25000 µM for CC(=O)CCCC(=O)O ?
0%

So what does the record say about responders at 25000 µM for CC(C)C(C(=O)O)C(=O)O ?
50%

So what does the record say about responders at 25000 µM for CC(C)(C)CC(=O)O ?
100%

So what does the record say about responders at 25000 µM for CC(C)(O)CC(=O)O [3-Hydroxy-3-methylbutyric acid, 3-Hydroxy-3-methylbutanoic acid] ?
0%

So what does the record say about responders at 25000 µM for O=C(O)c1ccc2ccccc2n1 ?
16%
